System: SNB-75 CNS
ASSAY_EXPLANATION: NCI tumour cell line growth inhibition, 48 h
Give measured TGI for each item. Keep answers brief.

stdin: // map COc1cccc2c1N[S@](=O)S2 to recorded TGI (system: SNB-75 CNS)
stdout: > 100 µM

stdin: Field: TGI (SNB-75 CNS). Entry: CCCN=Cc1c(O)c(O)c(C(C)C)c2cc(C)c(-c3c(C)cc4c(C(C)C)c(O)c(O)c(C=NCCC)c4c3O)c(O)c12
stdout: > 100 µM

stdin: Checklist item: TGI tested on SNB-75 CNS, entry O=C(Nc1ccc(OCc2nnc(-c3ccc(Cl)cc3)o2)c(F)c1)c1ccc(Cl)c(C(F)(F)F)c1 , value?
stdout: > 50 µM

stdin: Notebook entry, SNB-75 CNS assay: TGI of c1ccc2c(c1)SC1=C(SC(=C3SC4=C(S3)Sc3ccccc3S4)S1)S2 = ?
stdout: > 100 µM

stdin: Lab request: please report TGI under test system SNB-75 CNS for CCC(=O)/C=C/c1ccccc1
stdout: > 100 µM

stdin: // lookup TGI | system=SNB-75 CNS | key= CCn1c(=O)c(Oc2ccc(F)cc2F)cc2cnc(NC3CCOCC3)nc21
stdout: > 25 µM

====

System: HOP-62 NSCLC
ASSAY_EXPLANATION: NCI tumour cell line growth inhibition, 48 h
Would you mind telling me the reported TGI of each entry?

stdin: Report TGI for Cc1nc2ccccn2c1N=Nc1ccc(C(=O)NN)cc1 please.
stdout: > 100 µM

stdin: Item Cc1ccc(O)c(-c2cc(-c3cccc(Br)c3)on2)c1 has what recorded TGI?
stdout: > 100 µM

stdin: Entry C1CSC(Sc2nc(SC3=NCCS3)nc(SC3=NCCS3)n2)=N1 : reported TGI = ?
stdout: > 100 µM

stdin: Could you tell me which TGI is on file for O=C(/C=C/c1ccc(Cl)cc1)c1ccc(Nc2nc(Nc3ccc(F)cc3)nc(Nc3ccc(F)cc3)n2)cc1 ?
stdout: > 100 µM

stdin: Please look up its TGI: COc1cc(OC)c2c(c1-c1ccc(C)cc1)CC(C)N(Cc1ccccc1)[C@H]2C (stereo partly specified)
stdout: > 100 µM

stdin: Give its TGI value. Item: CCOC(=O)C1C(=O)C=C(c2cc(C)ccc2O)CC1c1cccc(Cl)c1 (stereo unspecified)
stdout: > 100 µM

====

Tested on: COLO 205 colon
ASSAY_EXPLANATION: NCI tumour cell line growth inhibition, 48 h
RECORDED_METRIC: TGI

stdin: May I ask what TGI has been recorded for O=C(Nc1ccc(OCc2nnc(-c3ccc(Cl)cc3)o2)c(F)c1)c1ccc(Cl)c(C(F)(F)F)c1 ?
stdout: > 50 µM

stdin: Return reported TGI; argument: O=C(COc1nc2ccccc2nc1-c1ccccc1)Nc1ccc(Cl)cc1
stdout: > 100 µM

stdin: What does the record list as TGI for Cn1ncc(NC(=O)c2nc(-c3c(F)cccc3F)sc2N)c1N1CC[C@@H](N)[C@H](F)CC1 ?
stdout: 16.7 µM

stdin: What value of TGI has been reported for the following compound? N#Cc1ccccc1NC(=O)/C(=N\Nc1ccc([N+](=O)[O-])cc1)C1C(=O)NC(=O)NC1=O
stdout: > 100 µM

stdin: Which TGI reading was recorded for the compound CCOC(=O)C12CCCC1(O)N(NC(N)=O)C(C)=C2C(=O)OC (stereo unspecified) ?
stdout: > 100 µM

stdin: Given the compound COc1cc2c(cc1OCCCCCn1c(-c3ccc(OCc4ccccc4)cc3)nc3cc(N4CCOCC4)ccc31)N=C[C@@H]1CCCN1C2=O , what is its reported TGI?
stdout: 5.13 µM

stdin: Consider the compound shown here: CCOc1ccc(N=Nc2ccc3oc(=O)c(/C(C)=N/NC(=O)CC(=O)Nc4cccc(OC)c4)cc3c2)cc1 What is its recorded TGI?
stdout: 78.3 µM

stdin: # TGI lookup, item O=[N+]([O-])c1ccc(C2=Nn3c(nnc3-c3ccccc3)SC2)o1
stdout: 49.9 µM

stdin: Give its TGI value. Item: Clc1ccc(OCc2nn3c(CCCCc4nnc5sc(COc6ccc(Cl)cc6Cl)nn45)nnc3s2)c(Cl)c1
stdout: > 100 µM

stdin: Entry O=C([O-])c1cc(I)cc(I)c1[OH2+].O=C([O-])c1cc(I)cc(I)c1[OH2+].[Mn+2] : reported TGI = ?
stdout: > 100 µM

stdin: Returns the measured TGI for the input compound. Input: O=C(/C=C/NC(=O)OCc1ccccc1)OCc1ccccc1
stdout: > 100 µM

stdin: What value of TGI has been reported for the following compound? O=C1Nc2cc(Cl)ccc2C(=O)N2CCC[C@@H]12
stdout: > 100 µM

stdin: # TGI lookup, item CCNC(=O)N(CC)CN(CC)C(=O)NCC
stdout: > 100 µM

stdin: Looking for the measured TGI of CCC(CC)c1nc(Nc2cccc(OC)c2)c2ccccc2n1 , can you help?
stdout: 18.3 µM

stdin: Which TGI is listed for CC(C)(C)OC(=O)NCCc1ccc(N)cc1 ?
stdout: > 100 µM

stdin: Give the measured TGI of COc1cc2ccnc(C=O)c2cc1OC .
stdout: > 100 µM

====

Assignment: determine reported GI50 for the given compounds.
System: MDA-MB-231 breast
ASSAY_EXPLANATION: NCI tumour cell line growth inhibition, 48 h

stdin: Could you share which GI50 value was measured for O=c1c2cc(F)ccc2sc2c(Nc3ccncc3)nc3ccccc3c12 ?
stdout: 1300 nM

stdin: Fill in the blank: the reported GI50 of O=C(Nc1ccc(OCc2nnc(-c3ccc(Cl)cc3)o2)c(F)c1)c1ccc(Cl)c(C(F)(F)F)c1 is ____.
stdout: > 50000 nM

stdin: What value of GI50 has been recorded for this entry: C=C1C(=O)O[C@H]2[C@H]1CC/C(COC(=O)/C=C/C(=O)NCc1ccc(Cn3c(=O)sn(-c4ccccc4)c3=O)cc1)=C\CC[C@@]1(C)O[C@@H]21
stdout: 2020 nM

stdin: Requested read-out: GI50. Entry: O=C1Nc2ccccc2/C1=C\c1c(Cl)nc2sccn12
stdout: 6870 nM

====

Tested on: NCI-H522 lung
ASSAY_EXPLANATION: NCI tumour cell line growth inhibition, 48 h
Assign TGI to each entry below.

stdin: GET /values?readout=TGI&item= CCCCCCCCCCCCCC(=O)OC1C(O)C(CO)OC(OC)C1NC(=O)N(CCCl)N=O (centres undefined)
stdout: > 100 µM

stdin: Consider the compound shown here: O=C(/C=C/NC(=O)OCc1ccccc1)OCc1ccccc1 What is its recorded TGI?
stdout: > 100 µM

stdin: I have this compound here, COC1=CC(=Nc2c(Cl)cc(Cl)cc2OC(=O)c2ccc([N+](=O)[O-])cc2)C=C(OC)C1=O , and I need its recorded TGI.
stdout: 23.6 µM

stdin: Name the recorded TGI for O=c1cc(-c2ccccc2)c2ccc(O)c(CN(CCCl)CCCl)c2o1 .
stdout: 35.7 µM

stdin: Quick one: TGI of CC1=CC(C)(C)[C@H]2O[C@@]3(O)C[C@]4(C)[C@H]5C[C@@](C(C)C)(O[C@H]4c4ccoc4)O[C@H]4[C@]5(C3)O[C@@]1(O)[C@]24O ?
stdout: 45.8 µM

stdin: Find the recorded TGI belonging to O=C(CCc1n[nH]c(=S)o1)Nc1ccc(Cl)cc1Cl and report it.
stdout: > 100 µM

stdin: Would you kindly share the measured TGI for CC(C)=CCC/C(C)=C/CO ?
stdout: > 100 µM

stdin: Sample O=C1C(Cl)C(c2cc3cc(Br)ccc3nc2Cl)N1c1ccc(F)c(Cl)c1 (centres undefined) — what was its TGI?
stdout: 0.719 µM

stdin: Bench note: what TGI did C[N+](C)(C)CCN(Cc1cccs1)c1ccccn1 show?
stdout: > 100 µM

stdin: Given the compound CC(C)OC(=O)[C@@H]1OC(C)(C)O[C@H]1C(=O)OC(C)C , what is its reported TGI?
stdout: > 100 µM

stdin: Please report the recorded TGI for CCOC(=O)C1=C(Cl)c2cccnc2C1=O .
stdout: > 100 µM

stdin: I am curious: what TGI value has been reported for CC1=NC(C)(C)[N+]([O-])=C1 ?
stdout: > 10 µM

stdin: Could you tell me which TGI is on file for COc1ccc2c(CCNC(C)=O)c(C(C)=O)[nH]c2c1 ?
stdout: > 100 µM

stdin: Query (compound): CC(N)Cc1ccc(F)cc1 (centres undefined) ; field requested: TGI
stdout: > 100 µM

====

Test system: OVCAR-3 ovarian
ASSAY_EXPLANATION: NCI tumour cell line growth inhibition, 48 h
For each of the compounds below, state its TGI.
All answers are understood in µM, so give the number only.

stdin: Which TGI is listed for COc1ccc(-c2cc(-c3ccccc3)nc(SCCCC(=O)NO)n2)cc1OC ?
stdout: 5.36

stdin: Which TGI is reported for this compound? CCC[CH2][Sn]1([CH2]CCC)[O]C(=O)c2cccc(C)c2[O]1
stdout: 2.32

stdin: Consider the compound COc1cc2c(cc1OCCCCCn1c(-c3ccc(OCc4ccccc4)cc3)nc3cc(N4CCOCC4)ccc31)N=C[C@@H]1CCCN1C2=O and give its measured TGI.
stdout: 5.36

stdin: I am curious: what TGI value has been reported for Cc1nn(C(=O)c2ccccc2O)c2c1C(c1ccc3ccccc3c1O)SC(N)=N2 (stereo not drawn) ?
stdout: 9.61

stdin: Any idea what its TGI is? The compound is O=C(CC1(O)C(=O)Nc2c(Cl)ccc(Cl)c21)c1ccco1 (stereo not drawn)
stdout: 18.7

stdin: Quick one: TGI for CC(C)=[CH][Sb]([Br])([CH]=C(C)C)([CH]=C(C)C)[c]1ccccc1 ?
stdout: 67.3

stdin: If you can, please state the reported TGI value of CCCCCC(=O)N[C@H]1CCc2cc(O)c(O)c(O)c2-c2ccc(SC)c(=O)cc21 .
stdout: 99.6

stdin: Give the measured TGI of O=[N+]([O-])c1cc(Cl)c(Cl)cc1[N+](=O)[O-] .
stdout: 3.22

stdin: Which TGI reading was recorded for the compound COc1cc2c(cc1I)-c1c(cc(OC)c(OC)c1OC)CC[C@@H]2NC(C)=O ?
stdout: 0.572

stdin: I'd like to know its TGI. The compound in question is CCCCCCCCOCC(CO)OCCCCCCCC (stereo not drawn)
stdout: 34.2

stdin: Give its TGI value. Item: CC#CC#C/C=C1/O[C@]2(CCC(OC(=O)CC(C)C)CO2)[C@@H]2O[C@H]12 (stereo partly drawn)
stdout: 52.3

stdin: Entry under review: O=c1c(-c2ccccc2)c2n(c3ccccc13)CCN2 . Reported TGI?
stdout: 66.6

stdin: Which TGI is listed for NCCCCCCCCCCn1c2c(c3ccccc3c1=O)C(=O)c1ccccc1-2 ?
stdout: 27.3

stdin: Which value of TGI has been reported for CC(=O)Oc1c(-c2ccccc2)oc2ccccc12 in the records?
stdout: 6.02

stdin: Dear colleague, I am looking for the recorded TGI of the following compound: O=C(c1ccc(Cl)cc1)c1no[n+]([O-])c1C(=O)c1ccc(Cl)cc1
stdout: 14.5

stdin: Given the entry CCOC(=O)N1C/C(=C/c2ccc(Cl)cc2)C(=O)/C(=C/c2ccc(Cl)cc2)C1 , report its measured TGI.
stdout: 4.57

stdin: So what's the measured TGI for this one? O=C(NN1C(=O)C(Cl)C1c1ccc(O)cc1)c1ccccc1O (stereo not drawn)
stdout: 31.7

stdin: Given the entry Oc1ccc(O)c(Cc2ccccc2)c1 , report its measured TGI.
stdout: 7.8

stdin: I have this compound here, CS(=O)(=O)O[C@H]1C(=O)N(c2cc3c4ccccc4ccc3c3ccccc23)[C@@H]1c1ccccc1 , and I need its recorded TGI.
stdout: 0.278

stdin: Which TGI reading was recorded for the compound c1ccc([P+](c2ccccc2)(c2ccccc2)c2ccc3c4ccc([P+](c5ccccc5)(c5ccccc5)c5ccccc5)c5cccc(c6cccc2c63)c54)cc1 ?
stdout: 11.9
